Data origin: BindingDB's records for doi:10.1021/jm030311v

Record form. Attribute: log10 of Ki. Fill in for each entry.
TEST_DETAILS: Apparent antagonist activity determined by measuring the ability to inhibit stimulation of [35S]GTP-gamma-S, binding to opioid receptor delta 1 in guinea pig caudate membranes
Heads up, the numbers here are log10 of Ki in nM units.

CN1CC[C@]23c4c5ccc(O)c4O[C@H]2c2ncc(-c4ccc(Cl)cc4Cl)cc2C[C@H]3C1C5; 0.04

Each compound below has a reported value. Please supply its log10 of Ki.
1. Oc1ccc2c3c1OC1c4ncc(-c5ccc(Cl)cc5)cc4C[C@@]4(O)[C@@H](C2)N(CC2CC2)CC[C@]314 (stereo not given in full)
2. CN1CC[C@]23c4c5ccc(O)c4O[C@H]2c2ncc(-c4ccc(Cl)cc4)cc2C[C@H]3C1C5
3. Oc1ccc2c3c1O[C@H]1c4ncc(-c5ccc(Cl)cc5)cc4C[C@H]4C(C2)N(CC2CC2)CC[C@]314
4. CN1CC[C@]23c4c5ccc(O)c4O[C@H]2c2ncccc2C[C@H]3C1C5

**A:**
1: -0.74; 2: 1.04; 3: 0.20; 4: 2.77

* * *

TARGET_OR_SYSTEM: Mu-type opioid receptor (Cavia porcellus)
Sequence (P97266 whole entry): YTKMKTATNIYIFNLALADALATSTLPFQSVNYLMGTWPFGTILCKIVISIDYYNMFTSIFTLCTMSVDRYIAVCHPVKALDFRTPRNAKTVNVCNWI
READOUT_LABEL: Ki

**Q:** What Ki value was documented for this compound, CN1CC[C@]23c4c5ccc(O)c4O[C@H]2c2ncc(-c4ccc(Cl)cc4)cc2C[C@@]3(O)C1C5 ?
**A:** > 1000 nM

* * *

TARGET_OR_SYSTEM: Kappa-type opioid receptor (Cavia porcellus, UniProt P41144)
Sequence (P41144 whole entry): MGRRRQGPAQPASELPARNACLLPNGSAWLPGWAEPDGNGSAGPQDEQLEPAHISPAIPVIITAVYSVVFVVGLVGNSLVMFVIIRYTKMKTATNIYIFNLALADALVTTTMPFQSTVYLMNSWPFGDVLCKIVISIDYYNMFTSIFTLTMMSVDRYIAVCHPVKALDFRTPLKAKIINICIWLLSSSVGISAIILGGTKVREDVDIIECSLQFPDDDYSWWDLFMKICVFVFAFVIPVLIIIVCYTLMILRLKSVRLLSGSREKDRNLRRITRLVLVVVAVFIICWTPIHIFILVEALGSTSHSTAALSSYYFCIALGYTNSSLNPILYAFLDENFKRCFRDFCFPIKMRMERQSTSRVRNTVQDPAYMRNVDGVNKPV
READOUT_LABEL: pKi
One number for each entry, as −log10 of the molar value.

**Q:** What pKi value was documented for this molecule, CN1CC[C@]23c4c5ccc(O)c4O[C@H]2c2ncc(-c4ccc(Cl)cc4)cc2C[C@@]3(O)C1C5 ?
**A:** 6.12

* * *

TEST_DETAILS: Inhibitory concentration required for 50% inhibition of antagonism towards opioid receptor delta 1 in [35S]GTP-gamma-S, binding assay in guinea pig caudate
READOUT_LABEL: pIC50
Answers are plain numbers, as −log10 of the molar value.

Consider the reported pIC50 for these molecules:
CN1CC[C@]23c4c5ccc(O)c4O[C@H]2c2ncc(-c4ccc(Cl)c(Cl)c4)cc2C[C@H]3C1C5; 7.13
CN1CC[C@]23c4c5ccc(O)c4O[C@H]2c2ncc(-c4ccc(Br)cc4)cc2C[C@H]3C1C5; 7.26

Now for a further molecule.
**Q:** What pIC50 value was documented for this molecule, CN1CC[C@]23c4c5ccc(O)c4O[C@H]2c2ncc(-c4ccccc4)cc2C[C@@]3(O)C1C5 ?
**A:** 6.04
